- target_under_test: TR-β (Homo sapiens)
- test_protocol: In vitro TR-β activity (in-house protocol)
- Assay type: cell-based
- cond: Conc. 10 nM; read-out: TR-β Fold Induction w.r.t T3(100 nm)
- Method: In vitro TR-α & TR-β activities were determined as per in-house protocols and the results of representative compounds are provided in tables 1 & 2 below as a proof of the efficacies of the novel class of compounds disclosed above.
reported_endpoint: fold induction at 0.01 µM
Lab note: record the figure alone, no unit after it.

compound	measured_result
CCC(ON=Cc1cc(Br)c(Oc2ccc(O)c(C(C)C)c2)c(Br)c1)C(=O)O (centres unmarked)	73.4
CC(ON=Cc1cc(Br)c(Oc2ccc(O)c(-c3ccccc3)c2)c(Br)c1)C(=O)O (centres unmarked)	39.3
CC(ON=Cc1cc(Br)c(Oc2ccc(O)c(S(=O)(=O)NC3CCCCC3)c2)c(Br)c1)C(=O)O (centres unmarked)	11.2

*Q* Data request, read-out fold induction at 0.01 µM, for O=C(O)CON=Cc1cc(Cl)c(Oc2ccc(O)c(Cc3ccccc3)c2)c(Cl)c1
*A* 12

###

- target_under_test: TR-β (Homo sapiens, UniProt P10828)
- test_protocol: In vitro TR-β activity (in-house protocol)
- Assay type: cell-based
- cond: Conc. 1 nM; read-out: TR-β Fold Induction w.r.t T3(100 nm)
Below is a list of entries, each paired with its recorded fold induction at 0.001 µM value.
Lab note: record the figure alone, no unit after it.

Some solved cases for reference:
compound	measured_result
O=C(O)CON=Cc1cc(Br)c(Oc2ccc(O)c(C(O)c3ccc(Br)cc3)c2)c(Br)c1 (stereo not drawn) [Example 32]	11.8
CC(ON=Cc1cc(Br)c(Oc2ccc(O)c(-c3ccccc3)c2)c(Br)c1)C(=O)O (stereo not drawn) [Example 11]	16.1

# evaluate next
*Q* Data request, read-out fold induction at 0.001 µM, for CCC(C)c1cc(Oc2c(Br)cc(C=NOC(C(=O)O)c3ccccc3)cc2Br)ccc1O (stereo not drawn) [Example 18]
*A* 13.8

###

- target_under_test: UniProt:P10828
- Sequence (P10828 1-461): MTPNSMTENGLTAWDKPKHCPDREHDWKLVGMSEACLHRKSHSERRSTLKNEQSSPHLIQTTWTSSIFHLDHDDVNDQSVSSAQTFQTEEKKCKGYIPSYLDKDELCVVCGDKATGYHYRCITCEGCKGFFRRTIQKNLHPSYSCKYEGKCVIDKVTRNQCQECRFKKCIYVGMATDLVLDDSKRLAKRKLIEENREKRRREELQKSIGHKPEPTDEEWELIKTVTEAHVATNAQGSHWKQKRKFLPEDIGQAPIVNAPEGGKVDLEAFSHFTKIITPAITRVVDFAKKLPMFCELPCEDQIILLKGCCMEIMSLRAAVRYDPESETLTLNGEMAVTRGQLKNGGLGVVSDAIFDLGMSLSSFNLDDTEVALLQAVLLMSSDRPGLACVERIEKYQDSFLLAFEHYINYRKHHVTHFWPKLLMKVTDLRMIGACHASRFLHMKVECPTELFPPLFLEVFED
- test_protocol: In vitro TR-β activity (in-house protocol)
- Type: cell-based
- cond: Conc. 1000 nM; read-out: TR-β Fold Induction w.r.t T3(100 nm)
reported_endpoint: fold induction at 1 µM
Lab note: record the figure alone, no unit after it.

Some solved cases for reference:
compound	fold induction at 1 µM
O=C(O)CON=Cc1cc(Br)c(Oc2ccc(O)c(C(O)c3ccc(Br)cc3)c2)c(Br)c1 (stereo not drawn)	65
CC(ON=Cc1cc(Br)c(Oc2ccc(O)c(C(O)c3cccc(Cl)c3)c2)c(Br)c1)C(=O)O (stereo not drawn)	47.5
O=C(O)CON=Cc1cc(Br)c(Oc2ccc(O)c(S(=O)(=O)N3CCCC3)c2)c(Br)c1	58.1

*Q* Data request, read-out fold induction at 1 µM, for CC(ON=Cc1cc(Br)c(Oc2ccc(O)c(-c3ccccc3)c2)c(Br)c1)C(=O)O (stereo not drawn)
*A* 65.3

*Q* Data request, read-out fold induction at 1 µM, for O=C(O)CON=Cc1cc(Cl)c(Oc2ccc(O)c(Cc3ccccc3)c2)c(Cl)c1
*A* 80.5

*Q* Data request, read-out fold induction at 1 µM, for O=C(O)CON=Cc1cc(Br)c(Oc2ccc(O)c(C(O)c3ccc(Cl)cc3)c2)c(Br)c1 (stereo not drawn)
*A* 68.5

*Q* Data request, read-out fold induction at 1 µM, for CC(ON=Cc1cc(Br)c(Oc2ccc(O)c(Cc3ccccc3)c2)c(Br)c1)C(=O)O (stereo not drawn)
*A* 70.5

*Q* Data request, read-out fold induction at 1 µM, for CCC(C)c1cc(Oc2c(Br)cc(C=NOC(C(=O)O)c3ccccc3)cc2Br)ccc1O (stereo not drawn)
*A* 122

*Q* Data request, read-out fold induction at 1 µM, for CC(C)(ON=Cc1cc(Br)c(Oc2ccc(O)c(-c3ccccc3)c2)c(Br)c1)C(=O)O
*A* 98.6

*Q* Data request, read-out fold induction at 1 µM, for CC(ON=Cc1cc(Br)c(Oc2ccc(O)c(C(O)c3ccc(Cl)cc3)c2)c(Br)c1)C(=O)O (stereo not drawn)
*A* 107

*Q* Data request, read-out fold induction at 1 µM, for CCC(C)c1cc(Oc2c(Br)cc(C=NOCC(=O)O)cc2Br)ccc1O (stereo not drawn)
*A* 74.6

*Q* Data request, read-out fold induction at 1 µM, for O=C(O)CON=Cc1cc(Br)c(Oc2ccc(O)c(Cc3ccccc3)c2)c(Br)c1
*A* 98.8

*Q* Data request, read-out fold induction at 1 µM, for CC(ON=Cc1cc(Cl)c(Oc2ccc(O)c(C(C)C)c2)c(Cl)c1)C(=O)O (stereo not drawn)
*A* 89

*Q* Data request, read-out fold induction at 1 µM, for CC(ON=Cc1cc(Br)c(Oc2ccc(O)c(C(=O)c3ccc(Cl)cc3)c2)c(Br)c1)C(=O)O (stereo not drawn)
*A* 76.2

*Q* Data request, read-out fold induction at 1 µM, for CCC(C)c1cc(Oc2c(Br)cc(C=NOC(C)(C)C(=O)O)cc2Br)ccc1O (stereo not drawn)
*A* 72.3

*Q* Data request, read-out fold induction at 1 µM, for CC(ON=Cc1cc(Br)c(Oc2ccc(O)c(C(C)(C)C)c2)c(Br)c1)C(=O)O (stereo not drawn)
*A* 86.1

*Q* Data request, read-out fold induction at 1 µM, for CCC(ON=Cc1cc(Br)c(Oc2ccc(O)c(C(C)CC)c2)c(Br)c1)C(=O)O (stereo not drawn)
*A* 90.8

*Q* Data request, read-out fold induction at 1 µM, for CC(ON=Cc1cc(Br)c(Oc2ccc(O)c(S(=O)(=O)N[C@@H]3C[C@H]4CC[C@@H]3C4)c2)c(Br)c1)C(=O)O (stereo partly drawn)
*A* 36.5

*Q* Data request, read-out fold induction at 1 µM, for CC(ON=Cc1cc(Br)c(Oc2ccc(O)c(S(=O)(=O)N3CCCCC3)c2)c(Br)c1)C(=O)O (stereo not drawn)
*A* 107

*Q* Data request, read-out fold induction at 1 µM, for CCC(ON=Cc1cc(Br)c(Oc2ccc(O)c(Cc3ccccc3)c2)c(Br)c1)C(=O)O (stereo not drawn)
*A* 85.6

*Q* Data request, read-out fold induction at 1 µM, for CC(ON=Cc1cc(Br)c(Oc2ccc(O)c(S(=O)(=O)N3CCCC3)c2)c(Br)c1)C(=O)O (stereo not drawn)
*A* 60.8

Taken from patent US20110301200A1.
